# experiment: in vitro
# reported-conditions: human, % Viability of SARS-2-Spike pv
Structures can show the parent of a compound that is named as a salt.
One threshold, 90%, splits the recorded viability values: lower ones are true (1), equal or higher ones are false (0).

Solved entries (count: 2):
INSERT INTO assay_data (compound, discrete_label) VALUES
  ('CCOC(=O)c1ccc(C#Cc2ccc3c(c2)C(C)(C)CCS3)nc1 [tazarotene]', 'false (0)'),
  ('CNC(=O)c1ccccc1Sc1ccc2c(/C=C/c3ccccn3)n[nH]c2c1 [Axitinib (AG 013736), Axitinib]', 'true (1)');

Query :: Lab note: confirm whether the reported viability for this compound is below 90%, equality not counting. compound: CC(CN1c2ccccc2Sc2ccccc21)N(C)C (centres unmarked) [promethazine HCl]
Result :: false (0)
